Origin of values: paper PMC11990670

# log10(KHpc/kPa·m^3·mol^−1) Henry's law volatility constant per entry
# Experiment summary: Gibbs energy of hydration and Henry's law volatility constant calculated from sublimation and solubility data
# Setup conditions: 25 °C, calculated by Equation (6)
Reply: number alone, nothing else.

>  <Compound structure>
O=Cc1c(Cl)cccc1Cl

>  <Observed measurement>
−3.07

$$$$
>  <Compound structure>
O=Cc1ccc(Cl)cc1Cl

>  <Observed measurement>
−2.50

$$$$

Prompt: Look at this molecule and give its reported log10(KHpc/kPa·m^3·mol^−1) Henry's law volatility constant. O=Cc1ccc(Br)cc1
Completion: −2.90

Prompt: Would you kindly share the measured log10(KHpc/kPa·m^3·mol^−1) Henry's law volatility constant for O=Cc1cccc(Cl)c1Cl ?
Completion: −2.53

Prompt: Field request: log10(KHpc/kPa·m^3·mol^−1) Henry's law volatility constant | item: O=Cc1ccc(Cl)cc1
Completion: −2.71

---

# Experiment summary: Thermodynamic properties of sublimation and vaporization from Clarke and Glew fit of vapor pressures
# Setup conditions: crystalline phase, θ = 298.15 K
p (Equation (1)) vapor pressure overview
State just the number; it will be interpreted in Pa.

Prompt: Which p (Equation (1)) vapor pressure is listed for O=Cc1ccc(Cl)cc1Cl ?
Completion: 2.64

Prompt: // returns reported p (Equation (1)) vapor pressure for input O=Cc1c(Cl)cccc1Cl
Completion: 0.95

Prompt: Could you share which p (Equation (1)) vapor pressure value was measured for O=Cc1ccc(Br)cc1 ?
Completion: 4.59

Prompt: Item O=Cc1ccc(Cl)cc1 has what recorded p (Equation (1)) vapor pressure?
Completion: 17.3

Prompt: Recorded p (Equation (1)) vapor pressure of O=Cc1cccc(Cl)c1Cl , please.
Completion: 2.47

---

The reader will find reported p (Equation (1)) vapor pressure values listed item by item below.
# Experiment summary: Thermodynamic properties of sublimation and vaporization from Clarke and Glew fit of vapor pressures
# Setup conditions: liquid phase including supercooled liquid, θ = 298.15 K
Enter your answer as a number in Pa; do not include the unit.

Sample records with p (Equation (1)) vapor pressure:
>  <Molecule>
O=Cc1ccc(Cl)cc1 [4-Chlorobenzaldehyde]

>  <Observed measurement>
27.3

$$$$
>  <Molecule>
O=Cc1ccc(Br)cc1 [4-Bromobenzaldehyde]

>  <Observed measurement>
9.57

$$$$
>  <Molecule>
O=Cc1cccc(Cl)c1Cl [2,3-Dichlorobenzaldehyde]

>  <Observed measurement>
5.81

$$$$
>  <Molecule>
O=Cc1ccc(Cl)cc1Cl [2,4-Dichlorobenzaldehyde]

>  <Observed measurement>
7.95

$$$$

Then there is this molecule:
Prompt: I have this molecule here, O=Cc1c(Cl)cccc1Cl [2,6-Dichlorobenzaldehyde] , and I need its recorded p (Equation (1)) vapor pressure.
Completion: 2.84

---

# Experiment summary: Thermodynamic properties of sublimation and vaporization from Clarke and Glew fit of vapor pressures
# Setup conditions: liquid phase including supercooled liquid, θ = 298.15 K, p° = 10^5 Pa
Experimental endpoint: ΔcdgHm°(θ) standard molar enthalpy of vaporization (kcal/mol)
Dear colleague, please return just the value in kcal/mol, with no unit written.

Take a look at these entries with their results.
>  <Compound>
O=Cc1ccc(Br)cc1 [4-Bromobenzaldehyde]

>  <Observed measurement>
14.6

$$$$
>  <Compound>
O=Cc1ccc(Cl)cc1Cl [2,4-Dichlorobenzaldehyde]

>  <Observed measurement>
14.8

$$$$
>  <Compound>
O=Cc1cccc(Cl)c1Cl [2,3-Dichlorobenzaldehyde]

>  <Observed measurement>
15

$$$$
>  <Compound>
O=Cc1ccc(Cl)cc1 [4-Chlorobenzaldehyde]

>  <Observed measurement>
13.6

$$$$

Read the next record carefully.
Prompt: Reported ΔcdgHm°(θ) standard molar enthalpy of vaporization, compound O=Cc1c(Cl)cccc1Cl [2,6-Dichlorobenzaldehyde] : ____
Completion: 15.8
